The values you see were collected from the supplement of paper PMC8967900.

The following compounds are listed with their measured selective drug sensitivity score values.
System: RCH-ACV
Test Summary: selective drug sensitivity score (sDSS, relative to normal bone marrow) (sDSS (score)); higher = more potent and effective on the cell line relative to normal bone marrow cells;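 further: ALL cell lines in 384-well plates, five doses spanning 10,000-fold, each plate scaled between vehicle and 100 µmol/L benzalkonium chloride controls, sDSS an adapted area-under-curve metric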
Cond: 72 h
Respond with the number and no other words.

CONC(=O)c1ccccc1Nc1cc(Nc2cc(C)nn2C(C)C)ncc1Cl (top concentration 1000 nM) ... -0.94
COc1ccc(-c2ccc3c(N4CCOC[C@@H]4C)nc(N4CCOC[C@@H]4C)nc3n2)cc1CO [AZD8055] (top concentration 10000 nM) ... 27.4
CN[C@@H](C)C(=O)N[C@H](C(=O)N1CCC[C@H]1c1nc(C(=O)c2ccc(F)cc2)cs1)C1CCCCC1 [NVP-LCL161] (top concentration 25000 nM) ... -0.52

Note to self: selective drug sensitivity score of COc1cc2ncnc(Nc3ccc(F)c(Cl)c3)c2cc1OCCCN1CCOCC1 [Gefitinib] (top concentration 10000 nM) with RCH-ACV was 1.66

Note to self: selective drug sensitivity score of CCc1c(C(=O)C(N)=O)c2c(OCC(=O)O)cccc2n1Cc1ccccc1 [Varespladib] (top concentration 10000 nM) with RCH-ACV was -0.84

Note to self: selective drug sensitivity score of Nc1nc(Nc2ccc3c(c2)CC[C@@H](N2CCCC2)CC3)nn1-c1cc2c(nn1)-c1ccccc1CCC2 [BGB324] (top concentration 10000 nM) with RCH-ACV was 5.02

---

The following molecules are listed with their measured selective drug sensitivity score values.
System: MOLT-16
Test Summary: selective drug sensitivity score (sDSS, relative to normal bone marrow) (sDSS (score)); higher = more potent and effective on the cell line relative to normal bone marrow cells
Cond: 72 h
Respond with the number and no other words.

// known answers, use as guide
CC[C@@H]1CN(C(=O)NCC(F)(F)F)C[C@@H]1c1cnc2cnc3[nH]ccc3n12 [Upadacitinib] (top concentration 10000 nM) ... -7.16
CN(C(=O)c1ccc(F)cc1C(F)(F)F)C1CCN(c2nnc(-c3ccnn3C)c3ccccc23)CC1 [Taladegib] (top concentration 10000 nM) ... 3.88
CC[C@@]1(O)C(=O)OCc2c1cc1n(c2=O)Cc2cc3c(CN(C)C)c(O)ccc3nc2-1 [Topotecan] (top concentration 10000 nM) ... 21.5

Notebook: Nc1cc(F)ccc1NC(=O)c1ccc(CNC(=O)/C=C/c2cccnc2)cc1 [Tucidinostat] (top concentration 10000 nM) , selective drug sensitivity score read as 4.54

Notebook: CN1CCC(CNc2ccc3ncc(-c4cccc(OC(F)(F)F)c4)n3n2)CC1 [SGI-1776] (top concentration 10000 nM) , selective drug sensitivity score read as -3.28

Notebook: O=C(Nc1ccc2[nH]nc(-c3ccncc3)c2c1)[C@@H]1CCN(CC(=O)N2CCN(c3ccc(-c4ncccn4)cc3)CC2)C1 (top concentration 10000 nM) , selective drug sensitivity score read as 1.06

---

Test system: 380
Test Summary: selective drug sensitivity score (sDSS, relative to normal bone marrow) (sDSS (score)); higher = more potent and effective on the cell line relative to normal bone marrow cells
Cond: 72 h
Measured Parameter: selective drug sensitivity score
Respond with the number and no other words.

// known answers, use as guide
O=C(Nc1cc(Cl)cc2c1[nH]c1cnccc12)c1cccnc1 [PS-1145] (top concentration 25000 nM) ... -0.46
C[C@@H]1COCCN1c1cc(C2([S@](C)(=N)=O)CC2)nc(-c2cc[nH]c3nccc2-3)n1 [AZD6738] (top concentration 25000 nM) ... 19.5
COc1cc([C@@H]2c3cc4c(cc3[C@@H](O[C@@H]3O[C@@H]5CO[C@@H](C)O[C@H]5[C@H](O)[C@H]3O)[C@H]3COC(=O)[C@H]23)OCO4)cc(OC)c1O [Etoposide] (top concentration 10000 nM) ... 21.3

Notebook: Nc1cc(C(F)(F)F)c(-c2cc(N3CCOCC3)nc(N3CCOCC3)n2)cn1 [Buparlisib] (top concentration 10000 nM) , selective drug sensitivity score read as 7.18
